# system-name: ovine COX-1 (Ovis aries)
# Construct: COX-1 was purified from ram seminal vesicles obtained from Oxford Biomedical Research, Inc; tissue Oxford Biomedical Research, Inc. (Oxford, Michigan) (supplier of the tissue); host or cells: ram seminal vesicles
# Sequence (P05979 25-600): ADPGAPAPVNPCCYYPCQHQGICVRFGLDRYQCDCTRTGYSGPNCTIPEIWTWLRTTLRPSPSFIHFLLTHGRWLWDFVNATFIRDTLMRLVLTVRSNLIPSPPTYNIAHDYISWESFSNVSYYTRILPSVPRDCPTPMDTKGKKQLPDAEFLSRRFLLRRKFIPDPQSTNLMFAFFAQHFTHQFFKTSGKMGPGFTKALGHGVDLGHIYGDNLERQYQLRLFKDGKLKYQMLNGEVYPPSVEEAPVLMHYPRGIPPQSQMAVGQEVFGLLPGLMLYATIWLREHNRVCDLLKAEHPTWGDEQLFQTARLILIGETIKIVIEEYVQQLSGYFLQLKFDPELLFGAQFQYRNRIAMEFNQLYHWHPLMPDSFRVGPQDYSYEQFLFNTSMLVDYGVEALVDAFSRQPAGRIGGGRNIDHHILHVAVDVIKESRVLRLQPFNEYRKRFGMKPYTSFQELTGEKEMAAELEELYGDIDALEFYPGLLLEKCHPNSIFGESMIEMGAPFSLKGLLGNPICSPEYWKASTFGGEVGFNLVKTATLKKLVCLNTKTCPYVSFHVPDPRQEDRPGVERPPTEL
# measurement-description: TLC assay, inhibition of purified ovine COX-1
# Assay type: biochemical
# condition-context: ovine COX-1 (44 nM), inhibitor 20 min, then 1-14C-AA (50 μM) at 37° C. for 30 sec, duplicate
assay-endpoint: IC50

query: Reported IC50 for ovine COX-1 (Ovis aries), given COc1ccc2c(c1)c(CC(=O)N(C)CCc1ccccc1)c(C)n2C(=O)c1ccc(Cl)cc1 [Compound 9, lndomethacin-N-methylphenethyl amide] ?
result: > 66 µM
